Test system: BT-549 breast
Assay: NCI tumour cell line growth inhibition, 48 h
Where a SMILES comes first, the peptide text is derived from it. The star is where a group is joined. Cbz = O=C(OCc1ccccc1)*; Bn = c1ccc(C*)cc1
Here, each record is paired with measured TGI data.
Measurement label: TGI

COc1ccc(N2C(=O)/C(=C\c3ccccc3)SC2c2cc(OC)c(OC)c(OC)c2)cc1 (centres undefined) :: > 100 µM
COC(=O)C(Cc1ccc(O)cc1)NC(=O)C(COCc1ccccc1)NC(=O)OCc1ccccc1 (centres undefined) (Cbz-Ser(Bn)-Tyr-OMe; configuration not given here) :: > 100 µM
O=C1c2ccccc2C(=O)c2c(NC(=O)C3CC3)ccc(NC(=O)C3CC3)c21 :: > 100 µM
CCc1c(CNC2=NCCN2)c(CC)c(CNC2=NCCN2)c(CC)c1CNC1=NCCN1 :: > 100 µM
COc1ccc(C2C(C#N)=C(N)Oc3c2sc2c(Br)cccc32)cc1 (centres undefined) :: 25.3 µM
Cc1ccc(-c2nc(-c3nccc4ccccc34)oc2-c2ccccc2)cc1 :: > 100 µM
O=C(Nc1cc(F)c(F)cc1C(=O)O)c1ccc(-n2ccnc2)nn1 :: > 100 µM
C=C1C(=O)O[C@H]2[C@H]1CC/C(COC(=O)/C=C\C(=O)NCc1ccc(Cn3c(=O)sn(CCI)c3=O)cc1)=C\CC[C@@]1(C)O[C@@H]21 :: 22.6 µM
CCC1(CC)N=C(C(F)(F)F)c2cc(C(=O)C(F)(F)F)c3ccccc3c2N1 :: 29 µM

###

Here, each record is paired with measured TGI data.
Tested on: KM12 colon
Test: NCI tumour cell line growth inhibition, 48 h
Measurement label: TGI

COC(=O)c1c(-c2cc(OC)c(OC)c(OC)c2)oc2ccccc2c1=O :: > 100 µM
O=C1NC2(CCCCC2)C(=O)N1CCN(CCCl)CCCl :: > 194 µM
COc1ccc(OC)c(NC(=O)C(=O)CC(=O)c2sc(-n3nc(-c4ccccc4)cc3-c3ccccc3)nc2C)c1 :: > 100 µM
CS(=O)(=O)OCCCSCCSCCCOS(C)(=O)=O :: > 100 µM
CC(=O)NNc1nc(C)c(C(=O)NNC(=O)C(=O)Nc2c([N+](=O)[O-])ccc(C)c2C)s1 :: > 100 µM
COc1cc2c(c(OC)c1OC)-c1ccc(SC)c(=O)cc1[C@@H](NC(=O)C(F)(F)F)CC2 :: < 0.0631 µM
COCN(C)c1nc(N(C)C)nc(N(C)C)n1 :: > 100 µM
CCOC(=O)c1c(N2CCCC2)[nH]c(=O)c(C(c2ccc(Cl)c([N+](=O)[O-])c2)c2c(O)c(C(=O)OCC)c(N3CCCC3)[nH]c2=O)c1O :: > 100 µM
COC1C=COC2(C)Oc3c(C)c(O)c4c(O)c(c(C5SCCS5)c(O)c4c3C2=O)NC(=O)/C(C)=C\C=CC(C)C(O)C(C)C(O)C(C)C(OC(C)=O)C1C (centres undefined) :: 30.6 µM

###

System: CAKI-1 renal
Assay: NCI tumour cell line growth inhibition, 48 h
Measurement label: GI50

Clc1ccc2c(c1)N(C1CCCN(Cc3ccccc3)C1)c1ccccc1S2 (centres undefined) :: 4.38 µM
O=C(Nc1cc(Cl)ccc1O)c1cccc(Nc2ccnc(C(F)(F)F)c2)c1 :: 2.61 µM
O=C(NCCOCCOCCOCCNC(=O)c1cc2c(o1)C(=O)c1ccccc1C2=O)NC12CC3CC(CC(C3)C1)C2 :: 2.37 µM
O=C1NC2(CCCCC2)C(=O)N1CCN(CCCl)CCCl :: 19.5 µM
COc1cc(-c2nc3ccccc3o2)cc(CN2CCCCC2)c1O :: 14.3 µM
Fc1ccc(-c2nn3ccccc3c2-c2ccncc2)cc1 :: 11.8 µM
[N-]=[N+]=NCCCn1c2c(c3ccc([N+](=O)[O-])cc3c1=O)C(=O)c1cc(-c3ccccc3)ccc1-2 :: > 100 µM
Cc1ccc(Cl)c(NS(=O)(=O)c2ccc(-c3cnc(C4CC4)o3)cc2)c1 :: 0.0531 µM
COc1cc2ncnc(Nc3ccc(Oc4ccnc(C)c4)c(C)c3)c2cc1NC(=O)CC1CCSS1 (centres undefined) :: 1.31 µM
